# STUDY_SYSTEM: T1, human CD228 (R&D Systems Custom02; Lot DCWR021505A) (human, UniProt P08582 20-709, limits assumed)
# T1 construct: Bought custom protein coated on ELISA plates; also called CD228 protein; melanotransferrin
# T1 sequence (looked up): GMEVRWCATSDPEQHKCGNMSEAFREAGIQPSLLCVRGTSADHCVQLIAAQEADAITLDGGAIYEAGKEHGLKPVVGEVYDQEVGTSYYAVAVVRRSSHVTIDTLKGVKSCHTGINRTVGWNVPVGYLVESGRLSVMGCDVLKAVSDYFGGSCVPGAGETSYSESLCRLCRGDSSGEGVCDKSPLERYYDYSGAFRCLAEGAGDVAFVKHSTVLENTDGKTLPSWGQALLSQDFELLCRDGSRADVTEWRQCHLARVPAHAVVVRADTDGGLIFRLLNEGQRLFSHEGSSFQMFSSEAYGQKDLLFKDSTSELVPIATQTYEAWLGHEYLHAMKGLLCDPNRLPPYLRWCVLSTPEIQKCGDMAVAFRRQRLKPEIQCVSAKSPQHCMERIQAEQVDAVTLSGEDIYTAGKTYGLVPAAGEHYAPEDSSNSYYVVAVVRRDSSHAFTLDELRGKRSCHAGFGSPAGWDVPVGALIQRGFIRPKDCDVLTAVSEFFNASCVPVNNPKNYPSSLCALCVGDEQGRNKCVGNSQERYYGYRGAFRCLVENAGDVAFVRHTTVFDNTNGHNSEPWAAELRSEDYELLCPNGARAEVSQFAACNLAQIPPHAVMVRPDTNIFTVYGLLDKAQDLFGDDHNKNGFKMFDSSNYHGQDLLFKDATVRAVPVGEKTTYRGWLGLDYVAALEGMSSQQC
# RUN_DESCRIPTION: ELISA on CD228 protein, neutral pH (rounded form of Table 2, pH 7.40)
# maps each entry to its pEC50
Give only the number. pEC50 is defined as minus log10 of concentration in molar units.

Consider the reported pEC50 for these binders:
- BINDER: "hL49_34_Ala (antibody, V domains shown, hL49 variant with the light chain CDR-L1 histidine 34 changed to alanine; also called hL49_H34A) VH: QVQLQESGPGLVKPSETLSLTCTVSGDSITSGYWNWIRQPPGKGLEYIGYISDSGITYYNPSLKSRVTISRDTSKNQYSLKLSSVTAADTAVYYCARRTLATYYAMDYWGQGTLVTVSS VL: DFVMTQSPLSLPVTLGQPASISCRASQSLVHSDGNTYLAWYQQRPGQSPRLLIYRVSNRFSGVPDRFSGSGSGTDFTLKISRVEAEDVGVYYCSQSTHVPPTFGQGTKLEIK"
  pEC50: 8.92
- BINDER: "hL49_27D_Ala (antibody, V domains shown, hL49 variant with the light chain CDR-L1 histidine 27D changed to alanine) VH: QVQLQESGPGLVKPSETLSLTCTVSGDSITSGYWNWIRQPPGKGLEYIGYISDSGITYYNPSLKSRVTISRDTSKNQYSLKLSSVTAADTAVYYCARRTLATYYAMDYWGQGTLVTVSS VL: DFVMTQSPLSLPVTLGQPASISCRASQSLVASDGNTYLHWYQQRPGQSPRLLIYRVSNRFSGVPDRFSGSGSGTDFTLKISRVEAEDVGVYYCSQSTHVPPTFGQGTKLEIK"
  pEC50: 9.22

Fill blank: measured pEC50 of the binder hL49_3X_Gln (antibody, V domains shown, hL49 triple mutant: all three light chain CDR histidines changed to glutamine; also called 3X-Gin) VH: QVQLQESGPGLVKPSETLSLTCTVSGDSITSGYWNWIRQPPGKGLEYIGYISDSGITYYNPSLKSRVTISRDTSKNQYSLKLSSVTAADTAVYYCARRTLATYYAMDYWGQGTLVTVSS VL: DFVMTQSPLSLPVTLGQPASISCRASQSLVQSDGNTYLQWYQQRPGQSPRLLIYRVSNRFSGVPDRFSGSGSGTDFTLKISRVEAEDVGVYYCSQSTQVPPTFGQGTKLEIK is ____.
7.84
